test: clinical; details: human, in vivo, iv
MEASUREMENT TYPE: MRT (h)
Please reply with the bare figure in h and do not write the unit itself.

CNS(=O)(=O)Cc1ccc2[nH]cc(CCN(C)C)c2c1; 1.5
OC(CNCC(O)C1CCc2cc(F)ccc2O1)C1CCc2cc(F)ccc2O1 (stereo not drawn) [NEBIVOLOL]; 13
N=C(N)NC(=O)Cc1c(Cl)cccc1Cl [GUANFACINE]; 22

// MRT lookup, compound = CN(C)CCC(c1ccc(Cl)cc1)c1ccccn1 (stereo not drawn) [CHLORPHENIRAMINE] , result: 22

response.value for Nc1ncnc2c1ncn2CCOCP(=O)(O)O [ADEFOVIR] (field: MRT) = 1.9

Record N[C@@H](C(=O)N[C@@H]1C(=O)N2C(C(=O)O)=C(CSc3c[nH]nn3)CS[C@H]12)c1ccc(O)cc1 [CEFATRIZINE] . Reported MRT: 1.1

For CN(C)CCCN1c2ccccc2Sc2ccccc21 [PROMAZINE] the compound record lists MRT as 9.6
